Data provenance is patent US20220073643A1.

- SYSTEM UNDER TEST: human Claudin18.2 (human)
- ASSAY OVERVIEW: cell-based or functional assay
// CDC EC50 lookup, one value per entry
Dear colleague, please return just the value in µg/mL, with no unit written.

Worked examples follow.
{"columns": ["BINDER", "MEASURE NAME", "MEASURE UNIT", "READING"],
 "data": [
  ["406G3C4 (antibody, V domains shown) VH: EIQLQQSGPELMKPGASVRISCKASGYSFISYYIYWVKQSHGKGLEWIGYIDPFNGNTNYNQKFKGKATLTVDRSSSTAYIHLNSLTSEDSAVYYCAIVNGYGRGAMDYWGQGTSVTVSS VL: QIVLTQSPAIMSASPGEKVTMTCSASSSISYMHWYQQKSGTSPKRWIYDTSKLASGVPARFSGSGSGTSYSLTISSMEAEDAATYYCQQWSSNPLTFGDGTKLELK", "CDC EC50", "µg/mL", 1.93],
  ["194A2F7 (antibody, V domains shown) VH: QIQLVQSGPELKKPGETVKISCKASGYTFTDYLIHWVKQAPGKGLKWMGWINTETGEPTYADDFKGRFALSLETSASTACLQINNLKNEDTATYFCARIYYGNSFDYWGQGTTLTVSS VL: DIVMTQSPSSLPVTAGEKVTMTCKSSQNLLNSGNQKSYLTWYQQKPGQPPKLLIYWASTRETGVPDRFTGSGSGTDFTLTISSVQAEDLAVYYCQNAYRFPFTFGAGTRLELK", "CDC EC50", "µg/mL", 3.06],
  ["257B1G9 (antibody, V domains shown) VH: QAYLQQSGAELVRSGASVKMSCKASGYTFTSHNMHWVKQTPGQGLEWIGYIYPGNGGTNYNQKFKGKATLTADTSSSTAYMQISSLTSEDSAVYFCTRDYYGNSFAYWGQGTLVTVSA VL: DIVMTQSPSSLTERAGERVSMSCKSSQSLFNSGNQKNYLTWYQQKPGQPPKLLIYWASTRESGVPDRFTGSGSGTDFTLTISSVQAEDLAVYYCQNDYRYPFTFGAGTKLELK", "CDC EC50", "µg/mL", 0.305],
  ["413C12F8 (antibody, V domains shown) VH: DVQLVESGGGLVQPGGSRKLSCAASGFTFSGFGVHWIRQTPEKGLEWVAYIGSGSRPIYYADTVKGRFTISRDNPKNTLFLQMTSLRSEDTAMYFCARFYYGNSFDHWGQGTLVTVSA VL: DIVMTQSPSFLTVTAGEKVTMNCRSSQSLLNSGNQKNYLTWYQQRPGQPPKLLIYWASTRESGVPDRFTGSGSGTDFTLTISSVQAEDLALYYCQNAYSFPLTFGAGTKLELK", "CDC EC50", "µg/mL", 3.84]
]}

Quick note, CDC EC50 for 391F1G2 (antibody, V domains shown) VH: DVQLVESGGGLVQPGGSRKLSCAASGFTFSSFGMHWVRQAPEKGLEWVAYISSGSSPIYYADTVKGRFTISRDNPKNTLFLQMTSLRSEDTAMYFCARIYYGNSFAYWGQGTLVTVSA VL: DIVMTQSPSSLTVTAGEKVAMSCKSSQTLLNSGNQKNYLTWYQQKPGQPPKLLLYWASTRESGVPDRFTGSGSGTDFTLTISSVQAEDLAVYYCQNAYYYPLTFGSGTKLELK landed at 1.47
